PROTOCOL DESCRIPTION: Pharmacokinetics following oral administration in male cynomolgus monkeys
Type: in vivo
CONDITION CONTEXT: male, cynomolgus monkey, plasma, po, 100 mg/kg, PO, 100 mg/kg, read-out: C0/Cmax

{"COMPOUND": "CNc1cc(Nc2cc(F)cc3c2OCCO3)nc2c(NC(=O)N[C@@H]3C[C@@H]3F)cnn12 [Compound 1 adipate, Form 1]", "UNIT NAME": "ng/mL", "Cmax": 9770}

###

PROTOCOL DESCRIPTION: Pharmacokinetics following oral administration in male cynomolgus monkeys
Assay type: in vivo
CONDITION CONTEXT: male, cynomolgus monkey, plasma, po, 50 mg/kg, PO BID, 50 mg/kg BID, read-out: C0/Cmax

{"MOLECULE": "CNc1cc(Nc2cc(F)cc3c2OCCO3)nc2c(NC(=O)N[C@@H]3C[C@@H]3F)cnn12 [Compound 1, Form A]", "Cmax / ng/mL": 5630}

###

Test system: JAK1/TYK2
PROTOCOL DESCRIPTION: Co-stimulation assay in lysed whole blood: IFNa (JAK1/TYK2) stimulated STAT1 phosphorylation
Assay type: cell-based
CONDITION CONTEXT: lysed human whole blood, IFNa 100 ng/mL, pSTAT1 by flow cytometry; read-out: IFN-a/Jak1Tyk2 IC50
OBSERVED PROPERTY: IC50

{"LINE NOTATION": "CNc1cc(Nc2cc(F)cc3c2OCCO3)nc2c(NC(=O)N[C@@H]3C[C@@H]3F)cnn12", "RECORDED RESULT": "< 1000 nM"}

###

PROTOCOL DESCRIPTION: Pharmacokinetics following oral administration in male cynomolgus monkeys
Assay type: in vivo
CONDITION CONTEXT: male, cynomolgus monkey, plasma, po, 5 mg/kg, PO, 5 mg/kg, read-out: % F (oral bioavailability)
Structures can show the parent of a compound that is named as a salt.
OBSERVED PROPERTY: bioavailability (%)

{"COMPOUND": "CNc1cc(Nc2cc(F)cc3c2OCCO3)nc2c(NC(=O)N[C@@H]3C[C@@H]3F)cnn12 [Compound 1 oxalate, Form 1]", "OBSERVED PROPERTY": "bioavailability", "RECORDED RESULT": 21.6}
